measured-on: AXL (Homo sapiens (Human))
Sequence (P30530 26-894): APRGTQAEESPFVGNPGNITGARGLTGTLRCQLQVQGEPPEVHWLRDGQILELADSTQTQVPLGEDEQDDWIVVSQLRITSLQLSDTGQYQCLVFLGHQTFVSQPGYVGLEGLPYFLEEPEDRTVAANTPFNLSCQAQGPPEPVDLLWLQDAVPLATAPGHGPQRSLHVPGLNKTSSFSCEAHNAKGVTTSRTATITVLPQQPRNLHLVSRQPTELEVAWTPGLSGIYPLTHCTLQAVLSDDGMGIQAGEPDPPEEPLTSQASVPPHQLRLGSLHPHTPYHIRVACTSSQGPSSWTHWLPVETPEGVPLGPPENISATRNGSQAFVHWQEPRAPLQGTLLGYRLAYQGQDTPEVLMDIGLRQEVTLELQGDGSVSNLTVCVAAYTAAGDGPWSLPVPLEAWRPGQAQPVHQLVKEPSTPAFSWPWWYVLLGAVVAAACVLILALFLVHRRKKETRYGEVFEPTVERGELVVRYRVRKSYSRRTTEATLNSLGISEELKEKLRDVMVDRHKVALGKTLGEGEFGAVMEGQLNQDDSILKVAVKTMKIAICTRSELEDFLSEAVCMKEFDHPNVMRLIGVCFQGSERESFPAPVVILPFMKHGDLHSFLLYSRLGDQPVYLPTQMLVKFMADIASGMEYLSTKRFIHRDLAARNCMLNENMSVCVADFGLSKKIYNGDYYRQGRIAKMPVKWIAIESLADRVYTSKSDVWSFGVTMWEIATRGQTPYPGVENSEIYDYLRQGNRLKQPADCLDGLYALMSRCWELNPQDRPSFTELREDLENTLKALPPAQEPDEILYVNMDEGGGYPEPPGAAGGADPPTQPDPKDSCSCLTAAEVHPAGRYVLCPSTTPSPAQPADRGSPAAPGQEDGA
protocol-details: AXL autophosphorylation ELISA in A-172 cells
test-parameters: cellular, Gas6-stimulated, phospho-AXL ELISA
Protocol: A-172 glioblastoma cells (ATCC #CRL-1620) were seeded at 2.5×10^5 cells/well onto 24-well plates (Greiner #662165), in […] (Thermo Fisher #11995-040) containing 10% FBS (Thermo Fisher #26140-079), […] (Thermo Fisher #11140-050), […] (Thermo Fisher #35050-061), and 1% Penicillin Streptomycin (Thermo Fisher #15140-122). […] IC50 values were calculated by nonlinear regression analysis using a 4-parameter logistic curve fit in ActivityBase XE (IDBS).
The entries below are paired with their reported IC50.

> print(dat)
                                   compound  observed.result
1  COc1cc2nccc(Oc3ncc(NC(=O)C4(C(=O)Nc5ccc(F)cc5)CC4)cc3C#N)c2nc1OC         > 300 nM
2  COc1nc2c(Oc3ncc(NC(=O)C4(C(=O)Nc5ccc(F)cc5)CC4)cc3F)ccnc2cc1OCC(O)CO (stereo not shown)     10 to 100 nM
3  COc1cc2nccc(Oc3ccc(NC(=O)C4(C(=O)Nc5ccc(F)cc5)CC4)c(C)n3)c2nc1OC     10 to 100 nM
4  CCNC(=O)c1cc2c(Oc3ncc(NC(=O)C4(C(=O)Nc5ccc(F)cc5)CC4)cc3F)ccnc2cc1OC     10 to 100 nM
5  COc1nc2c(Oc3ccc(NC(=O)C4(C(=O)Nc5ccc(F)cc5)CC4)cn3)ncnc2cc1OCCCN1CCOCC1     10 to 100 nM

In: Form field: IC50 recorded for COc1cc2nccc(Oc3ncc(NC(=O)C4(C(=O)Nc5ccc(F)cc5)CC4)cc3F)c2cc1C(N)=O with AXL (Homo sapiens (Human)) (enter value)
Out: ≤ 10 nM

In: Form field: IC50 recorded for COc1cc2nccc(Oc3nc(C)c(NC(=O)C4(C(=O)Nc5ccc(F)cc5)CC4)cc3Br)c2nc1OC with AXL (Homo sapiens (Human)) (enter value)
Out: > 300 nM

* * *

measured-on: AXL (Homo sapiens (Human))
protocol-details: AXL autophosphorylation ELISA in A-172 cells
test-parameters: cellular, Gas6-stimulated, phospho-AXL ELISA
recorded-metric: IC50

> print(dat)
                               input.smiles                 measured.on  observed.result
1  CNC(=O)c1cc2c(Oc3ncc(NC(=O)C4(C(=O)Nc5ccc(F)cc5)CC4)cc3Cl)ccnc2cc1OC  AXL (Homo sapiens (Human))        ≤ 0.01 µM
2  COc1cc2nccc(Oc3ncc(NC(=O)C4(C(=O)Nc5ccc(F)cc5)CC4)cc3Cl)c2cc1C(=O)O  AXL (Homo sapiens (Human))         > 0.3 µM
3  COc1nc2c(Oc3ncc(NC(=O)C4(C(=O)Nc5ccc(F)cc5)CC4)cc3F)ccnc2cc1O  AXL (Homo sapiens (Human))         > 0.3 µM

Pending compound:
In: Form field: IC50 recorded for COc1cc2ncnc(Oc3ccc(NC(=O)C4(C(=O)Nc5ccc(F)cc5)CC4)cn3)c2nc1OC with AXL (Homo sapiens (Human)) (enter value)
Out: 0.1 to 0.3 µM

* * *

The entries below are paired with their reported IC50.
measured-on: Mer (Homo sapiens (Human), UniProt Q12866)
protocol-details: Mer autophosphorylation ELISA in transient transfected 293A cells
Assay type: cell-based
test-parameters: cellular, MERTK-transfected 293A cells, phospho-Mer ELISA
Sequence (Q12866 21-999): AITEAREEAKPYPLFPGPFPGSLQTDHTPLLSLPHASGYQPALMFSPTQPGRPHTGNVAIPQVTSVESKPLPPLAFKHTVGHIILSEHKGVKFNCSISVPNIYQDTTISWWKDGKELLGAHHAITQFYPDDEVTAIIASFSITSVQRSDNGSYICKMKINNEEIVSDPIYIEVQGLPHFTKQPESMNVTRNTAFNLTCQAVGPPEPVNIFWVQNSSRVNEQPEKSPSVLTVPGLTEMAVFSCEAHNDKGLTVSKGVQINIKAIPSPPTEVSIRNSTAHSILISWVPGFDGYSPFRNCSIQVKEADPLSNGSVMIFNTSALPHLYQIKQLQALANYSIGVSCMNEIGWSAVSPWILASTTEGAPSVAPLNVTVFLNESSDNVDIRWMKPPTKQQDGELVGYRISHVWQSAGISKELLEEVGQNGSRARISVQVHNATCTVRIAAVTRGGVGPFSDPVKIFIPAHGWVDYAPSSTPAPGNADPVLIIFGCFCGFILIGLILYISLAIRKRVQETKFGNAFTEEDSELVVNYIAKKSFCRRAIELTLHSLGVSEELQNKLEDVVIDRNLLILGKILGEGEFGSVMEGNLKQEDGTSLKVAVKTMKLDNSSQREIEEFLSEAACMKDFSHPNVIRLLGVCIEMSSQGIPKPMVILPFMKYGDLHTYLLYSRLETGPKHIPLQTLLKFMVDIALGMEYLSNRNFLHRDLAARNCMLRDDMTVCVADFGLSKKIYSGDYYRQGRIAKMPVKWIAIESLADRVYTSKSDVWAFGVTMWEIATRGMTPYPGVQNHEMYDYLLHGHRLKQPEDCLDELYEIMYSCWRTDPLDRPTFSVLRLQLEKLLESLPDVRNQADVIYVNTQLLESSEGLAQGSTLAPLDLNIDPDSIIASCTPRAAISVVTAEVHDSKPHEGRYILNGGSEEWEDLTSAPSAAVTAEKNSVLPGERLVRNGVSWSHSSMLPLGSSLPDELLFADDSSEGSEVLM

# annotated cases, reported IC50 shown
> print(dat)
                                   compound  recorded.metric  observed.result
1  COC(=O)c1cc2c(Oc3ncc(NC(=O)C4(C(=O)Nc5ccc(F)cc5)CC4)cc3Cl)ccnc2cc1OC             IC50     10 to 100 nM
2  COc1cc2nccc(Oc3ncc(NC(=O)C4(C(=O)Nc5ccc(F)cc5)CC4)cc3F)c2nc1OC             IC50     10 to 100 nM
3  COc1cc2nccc(Oc3ncc(NC(=O)C4(C(=O)Nc5ccc(F)cc5)CC4)cc3Cl)c2nc1OC             IC50    100 to 300 nM
4  CC(O)COc1cc2nccc(Oc3ncc(NC(=O)C4(C(=O)Nc5ccc(F)cc5)CC4)cc3Cl)c2cc1C(N)=O (centres unmarked)             IC50     10 to 100 nM
5  COc1nc2c(Oc3ncc(NC(=O)C4(C(=O)Nc5ccc(F)cc5)CC4)cc3F)ccnc2cc1OCCCN1CCOCC1             IC50     10 to 100 nM

In: Need IC50, item COc1nc2c(Oc3ncc(NC(=O)C4(C(=O)Nc5ccc(F)cc5)CC4)cc3F)ccnc2cc1OCC(O)CO (centres unmarked)
Out: 100 to 300 nM

In: Need IC50, item COc1cc2nccc(Oc3ncc(NC(=O)C4(C(=O)Nc5ccc(F)cc5)CC4)cc3Cl)c2cc1-c1ncco1
Out: 10 to 100 nM

In: Need IC50, item CNC(=O)c1cc2c(Oc3ncc(NC(=O)C4(C(=O)Nc5ccc(F)cc5)CC4)cc3Cl)ccnc2cc1OC
Out: 10 to 100 nM

In: Need IC50, item COc1nc2c(Oc3ncc(NC(=O)C4(C(=O)Nc5ccc(F)cc5)CC4)cc3F)ccnc2cc1OCCCN(C)C
Out: 10 to 100 nM

In: Need IC50, item NC(=O)c1cc2c(Oc3ncc(NC(=O)C4(C(=O)Nc5ccc(F)cc5)CC4)cc3F)ccnc2cc1OCCO
Out: 100 to 300 nM

In: Need IC50, item CCNC(=O)c1cc2c(Oc3ncc(NC(=O)C4(C(=O)Nc5ccc(F)cc5)CC4)cc3F)ccnc2cc1OC
Out: 10 to 100 nM

In: Need IC50, item CNC(=O)c1cc2c(Oc3ncc(NC(=O)C4(C(=O)Nc5ccc(F)cc5)CC4)cc3Cl)ccnc2cc1OCC(C)O (centres unmarked)
Out: 10 to 100 nM

In: Need IC50, item COc1nc2c(Oc3ncc(NC(=O)C4(C(=O)Nc5ccc(F)cc5)CC4)cc3F)ccnc2cc1OCCN1CCOCC1
Out: 10 to 100 nM

In: Need IC50, item COc1cc2nccc(Oc3ncc(NC(=O)C4(C(=O)Nc5ccc(F)cc5)CC4)cc3Cl)c2cc1-c1ncc[nH]1
Out: 10 to 100 nM

* * *

measured-on: Met (Homo sapiens (Human), UniProt P08581)
Sequence (P08581 25-1390): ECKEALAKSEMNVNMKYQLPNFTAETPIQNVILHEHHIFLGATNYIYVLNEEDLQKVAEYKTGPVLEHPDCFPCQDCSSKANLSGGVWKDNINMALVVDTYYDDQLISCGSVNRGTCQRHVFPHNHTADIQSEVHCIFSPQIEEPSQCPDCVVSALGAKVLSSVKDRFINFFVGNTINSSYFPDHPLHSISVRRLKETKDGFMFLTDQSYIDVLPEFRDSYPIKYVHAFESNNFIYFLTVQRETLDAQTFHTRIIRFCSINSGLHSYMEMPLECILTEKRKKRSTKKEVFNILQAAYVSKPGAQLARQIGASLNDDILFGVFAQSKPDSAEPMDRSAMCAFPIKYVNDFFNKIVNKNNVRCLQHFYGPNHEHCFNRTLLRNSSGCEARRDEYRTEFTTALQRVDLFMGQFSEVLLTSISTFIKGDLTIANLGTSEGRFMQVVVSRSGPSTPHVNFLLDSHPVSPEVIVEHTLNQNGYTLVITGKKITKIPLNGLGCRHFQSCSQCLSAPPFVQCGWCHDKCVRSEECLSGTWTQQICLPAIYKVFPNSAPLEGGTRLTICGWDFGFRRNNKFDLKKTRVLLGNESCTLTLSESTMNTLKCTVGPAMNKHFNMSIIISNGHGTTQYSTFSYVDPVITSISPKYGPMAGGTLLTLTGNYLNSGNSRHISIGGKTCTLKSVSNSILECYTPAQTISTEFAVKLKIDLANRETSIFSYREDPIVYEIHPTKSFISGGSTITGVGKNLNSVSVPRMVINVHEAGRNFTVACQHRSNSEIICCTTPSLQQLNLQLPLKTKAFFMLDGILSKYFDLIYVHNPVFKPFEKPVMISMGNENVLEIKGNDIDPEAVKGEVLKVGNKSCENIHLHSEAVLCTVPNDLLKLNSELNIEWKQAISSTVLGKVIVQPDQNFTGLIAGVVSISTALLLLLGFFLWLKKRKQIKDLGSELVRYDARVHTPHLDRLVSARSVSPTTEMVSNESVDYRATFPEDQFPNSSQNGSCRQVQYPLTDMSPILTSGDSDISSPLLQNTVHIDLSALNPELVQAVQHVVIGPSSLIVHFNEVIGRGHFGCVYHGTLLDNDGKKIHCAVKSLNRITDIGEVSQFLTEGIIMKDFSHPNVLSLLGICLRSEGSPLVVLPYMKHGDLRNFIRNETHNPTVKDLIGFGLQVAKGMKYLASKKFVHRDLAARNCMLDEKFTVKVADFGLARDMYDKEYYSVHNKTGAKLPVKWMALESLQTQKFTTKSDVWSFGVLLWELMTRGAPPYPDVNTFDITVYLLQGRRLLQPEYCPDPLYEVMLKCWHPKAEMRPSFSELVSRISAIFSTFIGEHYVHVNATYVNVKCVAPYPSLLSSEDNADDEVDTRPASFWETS
protocol-details: Met autophosphorylation ELISA in PC-3 cells
Assay type: cell-based
test-parameters: cellular, HGF-stimulated, phospho-Met ELISA, read-out: c-Met IC50
pIC50: −log10 of the molar value.
The entries below are paired with their reported pIC50.

> print(dat)
                                   compound  observed.result
1  COCCc1noc(-c2cc3c(Oc4ncc(NC(=O)C5(C(=O)Nc6ccc(F)cc6)CC5)cc4F)ccnc3cc2OC)n1           < 6.52

In: Form field: pIC50 recorded for NC(=O)c1cc2c(Oc3ncc(NC(=O)C4(C(=O)Nc5ccc(F)cc5)CC4)cc3F)ccnc2cc1OCCO with Met (Homo sapiens (Human), UniProt P08581) (enter value)
Out: 7.00 to 8.00

In: Form field: pIC50 recorded for COCCOc1cc2ncnc(Oc3ccc(NC(=O)C4(C(=O)Nc5ccc(F)cc5)CC4)cn3)c2nc1OC with Met (Homo sapiens (Human), UniProt P08581) (enter value)
Out: < 6.52

* * *

measured-on: Mer (Homo sapiens (Human))
protocol-details: Human Mer kinase assay (33P radiometric, KinaseProfiler)
Type: biochemical
test-parameters: 10 μM ATP
Sequence (Q12866 557-882): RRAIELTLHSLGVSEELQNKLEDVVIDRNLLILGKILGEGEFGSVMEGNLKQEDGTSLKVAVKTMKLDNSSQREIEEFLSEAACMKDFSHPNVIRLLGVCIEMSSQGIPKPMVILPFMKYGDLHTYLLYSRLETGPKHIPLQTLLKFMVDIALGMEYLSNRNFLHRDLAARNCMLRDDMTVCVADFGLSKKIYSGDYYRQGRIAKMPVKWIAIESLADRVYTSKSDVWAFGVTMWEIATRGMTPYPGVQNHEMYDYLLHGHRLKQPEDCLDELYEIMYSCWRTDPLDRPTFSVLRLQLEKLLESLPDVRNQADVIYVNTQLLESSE
pIC50: −log10 of the molar value.
The entries below are paired with their reported pIC50.

> print(dat)
                                   compound                 measured.on  recorded.metric  observed.result
1  COc1cc2nccc(Oc3ccc(NC(=O)C4(C(=O)Nc5ccc(F)cc5)CC4)cn3)c2cc1-c1cn[nH]c1 [Compound 60]  Mer (Homo sapiens (Human))            pIC50           ≥ 8.00
2  COc1cc2nccc(Oc3ncc(NC(=O)C4(C(=O)Nc5ccc(F)cc5)CC4)cc3Cl)c2cc1C(=O)O [Compound 14]  Mer (Homo sapiens (Human))            pIC50     6.00 to 7.00

In: Need pIC50, item COc1cc2nccc(Oc3ccc(NC(=O)C4(C(=O)Nc5ccc(F)cc5)CC4)cn3)c2nc1OC [Compound 81]
Out: 7.00 to 8.00

In: Need pIC50, item COc1cc2nccc(Oc3ccc(NC(=O)C4(C(=O)Nc5ccc(F)cc5)CC4)cn3)c2cc1C(=O)O [Compound 13]
Out: 6.00 to 7.00
